# System: serum 6 (individual 6)
# Type: binding, human
Mark each entry TRUE if its Binding of serum 6 to linear peptides of Orf14 of SARS-CoV TOR2 sits below 0.4, and FALSE for all others.

QUERY: Binding of serum 6 to linear peptides of Orf14 of SARS-CoV TOR2 under 0.4? Item: `AAVKPLLAPHHVVAV`
RESULT: FALSE

QUERY: Answer whether the sequence `AEAAVKPLLAPHHVV` has Binding of serum 6 to linear peptides of Orf14 of SARS-CoV TOR2 strictly less than 0.4
RESULT: FALSE

QUERY: Regarding `CYNFLKEQHCQKAST` , kindly confirm whether its Binding of serum 6 to linear peptides of Orf14 of SARS-CoV TOR2 is beneath 0.4.
RESULT: FALSE

QUERY: Is the reported Binding of serum 6 to linear peptides of Orf14 of SARS-CoV TOR2 for `REAEAAVKPLLAPHH` strictly below 0.4?
RESULT: TRUE

QUERY: Is 0.4 strictly greater than the sequence's reported Binding of serum 6 to linear peptides of Orf14 of SARS-CoV TOR2? sequence: `KASTQREAEAAVKPL`
RESULT: TRUE

QUERY: # TODO verify Binding of serum 6 to linear peptides of Orf14 of SARS-CoV TOR2 < 0.4 strictly for this sequence: `AVIQEIQLLAAVGEI`
RESULT: FALSE

QUERY: For this sequence, is Binding of serum 6 to linear peptides of Orf14 of SARS-CoV TOR2 lower than 0.4? `PPCYNFLKEQHCQKA`
RESULT: TRUE

QUERY: Bench note: check whether `LLEWLAEVVKLPSRY` shows Binding of serum 6 to linear peptides of Orf14 of SARS-CoV TOR2 below 0.4
RESULT: FALSE

QUERY: # check: Binding of serum 6 to linear peptides of Orf14 of SARS-CoV TOR2 < 0.4 for `AVGEILLLEWLAEVV`
RESULT: FALSE

QUERY: A record lists `QREAEAAVKPLLAPH` . Is its Binding of serum 6 to linear peptides of Orf14 of SARS-CoV TOR2 below 0.4?
RESULT: FALSE

QUERY: Lab note: Binding of serum 6 to linear peptides of Orf14 of SARS-CoV TOR2 threshold 0.4. Does this sequence come in strictly under it? `VGEILLLEWLAEVVK`
RESULT: FALSE

QUERY: Dear reviewer, please state whether `PCYNFLKEQHCQKAS` has Binding of serum 6 to linear peptides of Orf14 of SARS-CoV TOR2 strictly beneath 0.4.
RESULT: TRUE

QUERY: Input `AVKPLLAPHHVVAVI` ; condition: Binding of serum 6 to linear peptides of Orf14 of SARS-CoV TOR2 strictly below 0.4. Does it hold?
RESULT: FALSE

QUERY: Dear colleague, could you confirm whether Binding of serum 6 to linear peptides of Orf14 of SARS-CoV TOR2 of `CQKASTQREAEAAVK` falls below 0.4? Thanks.
RESULT: TRUE

QUERY: is_below(Binding of serum 6 to linear peptides of Orf14 of SARS-CoV TOR2, 0.4) for `ILLLEWLAEVVKLPS` ?
RESULT: FALSE

QUERY: # TODO verify Binding of serum 6 to linear peptides of Orf14 of SARS-CoV TOR2 < 0.4 strictly for this sequence: `ASTQREAEAAVKPLL`
RESULT: FALSE

QUERY: Is the reported Binding of serum 6 to linear peptides of Orf14 of SARS-CoV TOR2 for `LLLEWLAEVVKLPSR` strictly below 0.4?
RESULT: FALSE

QUERY: Find out if reported Binding of serum 6 to linear peptides of Orf14 of SARS-CoV TOR2 for `STQREAEAAVKPLLA` is less than 0.4
RESULT: FALSE

QUERY: Dear reviewer, please state whether `VIQEIQLLAAVGEIL` has Binding of serum 6 to linear peptides of Orf14 of SARS-CoV TOR2 strictly beneath 0.4.
RESULT: TRUE

QUERY: Take the sequence `YNFLKEQHCQKASTQ` and say whether its Binding of serum 6 to linear peptides of Orf14 of SARS-CoV TOR2 is less than 0.4.
RESULT: FALSE

QUERY: Lab note: Binding of serum 6 to linear peptides of Orf14 of SARS-CoV TOR2 threshold 0.4. Does this sequence come in strictly under it? `FLKEQHCQKASTQRE`
RESULT: TRUE

QUERY: Binding of serum 6 to linear peptides of Orf14 of SARS-CoV TOR2 under 0.4? Item: `KEQHCQKASTQREAE`
RESULT: TRUE

QUERY: Problem: For the sequence `VKPLLAPHHVVAVIQ` , is Binding of serum 6 to linear peptides of Orf14 of SARS-CoV TOR2 under 0.4?
RESULT: FALSE

QUERY: Does the reported Binding of serum 6 to linear peptides of Orf14 of SARS-CoV TOR2 of `LPPCYNFLKEQHCQK` stay below 0.4?
RESULT: TRUE

QUERY: Please let me know if `VVAVIQEIQLLAAVG` shows Binding of serum 6 to linear peptides of Orf14 of SARS-CoV TOR2 below 0.4.
RESULT: FALSE

QUERY: Identify whether the sequence `QHCQKASTQREAEAA` records Binding of serum 6 to linear peptides of Orf14 of SARS-CoV TOR2 below 0.4.
RESULT: TRUE

QUERY: Just wondering, is Binding of serum 6 to linear peptides of Orf14 of SARS-CoV TOR2 of `EWLAEVVKLPSRYCC` below 0.4?
RESULT: FALSE

QUERY: Consider `LLAPHHVVAVIQEIQ` . Does its Binding of serum 6 to linear peptides of Orf14 of SARS-CoV TOR2 lie strictly below 0.4?
RESULT: FALSE

QUERY: Determine whether this sequence shows Binding of serum 6 to linear peptides of Orf14 of SARS-CoV TOR2 lower than 0.4 (ties excluded): `QKASTQREAEAAVKP`
RESULT: TRUE
